measured_target: UniProt Q05941
Sequence (Q05941 23-502): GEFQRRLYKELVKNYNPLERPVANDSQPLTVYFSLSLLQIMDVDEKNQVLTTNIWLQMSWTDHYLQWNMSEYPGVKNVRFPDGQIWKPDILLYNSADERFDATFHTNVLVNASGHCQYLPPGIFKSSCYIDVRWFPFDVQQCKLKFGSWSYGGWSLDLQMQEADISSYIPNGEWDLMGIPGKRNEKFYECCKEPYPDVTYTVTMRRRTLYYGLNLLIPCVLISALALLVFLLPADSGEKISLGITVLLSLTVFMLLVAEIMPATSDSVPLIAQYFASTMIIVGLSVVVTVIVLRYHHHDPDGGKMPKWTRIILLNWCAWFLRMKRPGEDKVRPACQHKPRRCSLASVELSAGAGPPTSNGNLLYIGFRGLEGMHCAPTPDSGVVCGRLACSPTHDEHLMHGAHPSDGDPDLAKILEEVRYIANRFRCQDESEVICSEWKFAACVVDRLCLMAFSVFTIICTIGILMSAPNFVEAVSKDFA
experimental_readout: IC50

Find IC50 (UniProt Q05941) for the entry CN1C2CCCC1CN(C(=O)c1ccc(-c3ccc(N)cc3)o1)C2 420 nM
